Measured values drawn from PubChem BioAssay for this set.

# Target: Luciferin 4-monooxygenase (Photinus pyralis)
# Measurement description: inhibition of purified Photinus pyralis luciferase – biochemical, luminescence, purified enzyme, 2006 set, primary screen (AID 1141);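 further: cell-free assay with purified firefly luciferase at 100 ng per well in PBS; test concentration not given here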
# Test settings: purified firefly luciferase, SteadyGlo luminescence, 30 min; higher = more signal, called active from +8 up or from −8 down
Returns rule met if the recorded z-score is greater than or equal to -0.6, and rule not met otherwise.

Check out these entries, answers already filled in.
Compound	Target	Group
C[C@H]1NC(=O)C([C@@H](C)OCc2ccccc2)NC(=O)[C@@]23C(=O)N[C@@H](Cc4ccccc4)C2[C@H](C)[C@@]2(C)O[C@H]2C3/C=C/CC/C=C/CNC1=O (some centres not stated)	Luciferin 4-monooxygenase (Photinus pyralis)	rule not met
COCC(=C=CC[C@@H](O)c1ccccc1OCCO)C[C@@H](O)c1ccccn1	Luciferin 4-monooxygenase (Photinus pyralis)	rule met
C=CC[C@@]1(C(=O)NCC(O)CO)N=C(c2ccc(OCCCO)cc2)O[C@@H]1c1ccccc1 (some centres not stated)	Luciferin 4-monooxygenase (Photinus pyralis)	rule not met

**Q:** Does the reported z-score for CC(C)CCC[C@@H](C)[C@H]1CC[C@@]2(C)C3=C(CC[C@]12C)[C@@]1(C)CC[C@H](OC(=O)C(C)(C)C)C(C)(C)C1CC3 (some centres not stated) fall at or above the -0.6 mark?
**A:** rule met

**Q:** Could you please find out whether `COC(=O)[C@@]1(Cc2ccc(F)cc2)[C@H]2c3cc(C(=O)N4CCCC4)n(Cc4ccccc4)c3C[C@H]2CN1C(=O)c1ccccc1` has z-score that meets -0.6 or exceeds it?
**A:** rule met

**Q:** Exam item: decide whether the reported z-score for `COC(=O)C(CC#Cc1ccc2c(c1)[C@]1(C(=O)N2)[C@H](c2ccc(O)cc2)N2[C@H](c3ccccc3)[C@H](c3ccccc3)OC(=O)[C@H]2[C@@H]1C(=O)O)C(=O)OC` is at least -0.6.
**A:** rule met

====

# Measurement description: JC-1 mitochondrial signal, unstimulated myeloma cells – cell-based, JC-1 fluorescence, RPMI8226, 24 h, 100 nL compound, profiling panel (AID 1169); further: test concentration not given here
# Test settings: JC-1 mitochondrial potential fluorescence, higher = more signal
Recorded endpoint: z-score
Please reply with the number alone, leaving off any unit.

Compound	Reported
C[N+](C)(C)CCCC[C@@H]1NC(=O)[C@@H]2C[C@H](C(=O)NCCCCCNC(=O)CS)[C@H](c3cccc(OCCO)c3)N2C1=O	0.245
CC1C=C(CCCO)C=C(C(=O)OCCS(C)(=O)=O)C(C(=O)OCCS(C)(=O)=O)=CN1Cc1cccc(OC(F)(F)F)c1 (stereo not drawn)	0.186

# context switch: different compound, same z-score
response.value for `COCCOC(=O)N1C(=O)[C@@]2(c3cc(C#CCC(C(=O)OC)C(=O)OC)ccc31)[C@H](C(=O)N1CCCCCCC1)[C@H]1C(=O)O[C@H](c3ccccc3)[C@H](c3ccccc3)N1[C@@H]2c1ccc(O)cc1` (field: z-score) = 0.439

====

Reported values of z-score for individual entries
# Measurement description: optical density change of DRC41 E. coli – strain DRC41, OD650, 24 h, E. coli filamentation project, primary screen (AID 1093);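 further: MC1000 strain lacking acrAB efflux and sulA so SOS filamentation is blocked; test concentration not given here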
# Test settings: E. coli DRC41 growth, higher = more signal, called active from +8 up or from −8 down
Hey, just send me the number, nothing else.

Past entries and their recorded results:
Chemical smiles	Reported
NC(=O)NCC#Cc1ccc2c(c1)[C@]1(C(=O)N2)[C@H](c2ccc(O)cc2)N2[C@H](c3ccccc3)[C@H](c3ccccc3)OC(=O)[C@H]2[C@@H]1C(N)=O	0.248
COCCCNC(=O)[C@@]1(C)c2ccccc2C(=O)N(c2ccc(C)cn2)[C@H]1c1ccc(CO)cc1	0.288

Now for another entry.
z-score reported for this compound `COCCOC(=O)N1C(=O)[C@@]2(c3cc(C#Cc4ccc(OC)cc4)ccc31)[C@H](C(N)=O)[C@H]1C(=O)O[C@H](c3ccccc3)[C@H](c3ccccc3)N1[C@@H]2c1ccc(OCCO)cc1` : 1.31
